# subjectOfTest: 5-HT1A receptor (Rattus norvegicus, UniProt P19327)
# Construct: 15 μg/mL of hippocampus homogenate was incubated in triplicate with 0.8 nM; from tissue; host or cells: rat hippocampus homogenate
# Sequence (P19327 whole entry): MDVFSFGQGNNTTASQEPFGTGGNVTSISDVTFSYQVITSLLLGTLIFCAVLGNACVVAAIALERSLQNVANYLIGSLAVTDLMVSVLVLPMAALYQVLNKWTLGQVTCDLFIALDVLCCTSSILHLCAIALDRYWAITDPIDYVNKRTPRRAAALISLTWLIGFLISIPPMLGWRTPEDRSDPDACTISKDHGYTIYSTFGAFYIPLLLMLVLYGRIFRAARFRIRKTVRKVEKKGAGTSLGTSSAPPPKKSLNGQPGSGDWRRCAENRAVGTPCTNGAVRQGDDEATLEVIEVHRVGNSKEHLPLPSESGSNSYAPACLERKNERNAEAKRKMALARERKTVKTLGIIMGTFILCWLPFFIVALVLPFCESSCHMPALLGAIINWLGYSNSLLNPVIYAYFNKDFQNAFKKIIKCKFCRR
# experimentNotes: Functional 5-HT1A receptor [35S]GTPγS assay (agonist mode);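 further: male Sprague-Dawley rat hippocampal membranes incubated 90 min at 37 °C, bound label counted by scintillation after filtration, non-specific binding defined with 100 µM unlabeled GTPγS, one-site curve fit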
# Type: biochemical
# assayContext: [35S]GTPγS, rat hippocampus homogenate; ± SEM; read-out: 5-HT1A Receptor G-Protein Stimulation pEC50 (converted)
Each entry below carries its recorded EC50.
Numbers only; they are read as nM.

Reference set (4 entries):
# compound, units, EC50
data = [
    ("O=C(NCCCN1CCN(c2ccccc2)CC1)C1CC2C=CC1C2 (centres unmarked) [Norbo-2]", "nM", 1660),
    ("O=C(NCCCN1CCN(c2ccc(F)cc2)CC1)C1CC2C=CC1C2 (centres unmarked) [Norbo-17]", "nM", 631),
    ("O=C(NCCCN1CCN(c2cccc(C(F)(F)F)c2)CC1)C1CC2C=CC1C2 (centres unmarked) [Norbo-19]", "nM", 316),
    ("COc1ccccc1N1CCN(CCCNC(=O)C2CC3C=CC2C3)CC1 (single isomer, unassigned) [Norbo-5]", "nM", 10000),
]

Shift focus to the following entry.
Reported EC50 for O=C(NCCCN1CCN(c2cccc(C(F)(F)F)c2)CC1)C1CC2C=CC1C2 (centres unmarked) [Norbo-20] : what is it?
200

Where do these numbers come from? They come from paper PMC9572521.
